- system: AURORA B (Homo sapiens, UniProt Q96GD4)
- Sequence (Q96GD4 whole entry): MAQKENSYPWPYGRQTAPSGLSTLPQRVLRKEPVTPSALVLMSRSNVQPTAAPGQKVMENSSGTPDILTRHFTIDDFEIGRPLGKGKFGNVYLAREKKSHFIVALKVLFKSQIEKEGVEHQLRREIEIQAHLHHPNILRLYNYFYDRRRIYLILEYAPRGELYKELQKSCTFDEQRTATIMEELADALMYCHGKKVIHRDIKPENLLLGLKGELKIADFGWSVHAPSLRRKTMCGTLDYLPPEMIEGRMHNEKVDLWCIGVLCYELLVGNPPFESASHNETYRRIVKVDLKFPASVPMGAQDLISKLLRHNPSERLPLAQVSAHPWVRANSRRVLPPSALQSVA
- test-details: In vitro filtration assay for AURORA B inhibitory activity
- Type: biochemical
- condition-notes: peptide (C(LRRWSLG)×4), 1 μM unlabeled ATP, 25° C. 40 minutes, read-out: Aurora B see C.3 (pIC50) (converted)

{"columns": ["entry-smiles", "system", "measurement-unit", "value-prefix", "IC50"],
 "data": [
  ["CC(C)(O)CN1CCN(Cc2ccc(Nc3ncc4cnn(C5CCOCC5)c4n3)cc2)CC1", "AURORA B (Homo sapiens, UniProt Q96GD4)", "µM", "=", 7.94],
  ["CN(C)CCOC(=O)c1ccc(Nc2ncc3[nH]c(=O)n(C4CCCCC4)c3n2)cc1", "AURORA B (Homo sapiens, UniProt Q96GD4)", "µM", ">", 10],
  ["CN1CCN(c2ccc(Nc3ncc4cnn(-c5ccccc5)c4n3)cc2)CC1", "AURORA B (Homo sapiens, UniProt Q96GD4)", "µM", "=", 0.794],
  ["CN1CCN(c2ccc(Nc3ncc4[nH]c(=O)n(C5CCCCC5)c4n3)cc2Cl)CC1", "AURORA B (Homo sapiens, UniProt Q96GD4)", "µM", ">", 10],
  ["CC(C)(C)OC(=O)N1CCC(N(Cc2ccc(Nc3ncc4cnn(C5CCCCC5)c4n3)cc2)C(=O)OC(C)(C)C)CC1", "AURORA B (Homo sapiens, UniProt Q96GD4)", "µM", ">", 10],
  ["c1cc(N2CCOCC2)ncc1Nc1ncc2cnn(C3CCCCC3)c2n1", "AURORA B (Homo sapiens, UniProt Q96GD4)", "µM", ">", 10],
  ["O=C(NC1CCN(CCO)CC1)c1ccc(Nc2ncc3cnn(C4CCCCC4)c3n2)cc1", "AURORA B (Homo sapiens, UniProt Q96GD4)", "µM", "=", 0.794],
  ["CN1CCN(c2ccc(Nc3ncc4cnn(C5CCCCC5)c4n3)cc2)CC1", "AURORA B (Homo sapiens, UniProt Q96GD4)", "µM", "=", 0.251],
  ["NS(=O)(=O)N1CCN(c2ccc(Nc3ncc4cnn(C5CCCCC5)c4n3)cc2)CC1", "AURORA B (Homo sapiens, UniProt Q96GD4)", "µM", "=", 3.16],
  ["O=S(=O)(c1ccc(Nc2ncc3cnn(C4CCCCC4)c3n2)cc1)N1CCOCC1", "AURORA B (Homo sapiens, UniProt Q96GD4)", "µM", ">", 10],
  ["CN1CCC(NCc2ccc(Nc3ncc4cnn(C5CCCCC5)c4n3)cc2)CC1", "AURORA B (Homo sapiens, UniProt Q96GD4)", "µM", ">", 10],
  ["CC(C)(O)CN1CCN(Cc2ccc(Nc3ncc4cnn(C5CCCCC5)c4n3)cc2)CC1", "AURORA B (Homo sapiens, UniProt Q96GD4)", "µM", "=", 2],
  ["CC(C)(C)OC(=O)N(c1ccc(CNCCN2CCOCC2)cc1)c1ncc2cnn([C@H]3C[C@@H]4CC[C@H]3C4)c2n1", "AURORA B (Homo sapiens, UniProt Q96GD4)", "µM", ">", 10]
]}
